- ASSAY_TARGET: Serine/threonine-protein kinase TBK1 (Homo sapiens, UniProt Q9UHD2)
- Sequence (Q9UHD2 whole entry): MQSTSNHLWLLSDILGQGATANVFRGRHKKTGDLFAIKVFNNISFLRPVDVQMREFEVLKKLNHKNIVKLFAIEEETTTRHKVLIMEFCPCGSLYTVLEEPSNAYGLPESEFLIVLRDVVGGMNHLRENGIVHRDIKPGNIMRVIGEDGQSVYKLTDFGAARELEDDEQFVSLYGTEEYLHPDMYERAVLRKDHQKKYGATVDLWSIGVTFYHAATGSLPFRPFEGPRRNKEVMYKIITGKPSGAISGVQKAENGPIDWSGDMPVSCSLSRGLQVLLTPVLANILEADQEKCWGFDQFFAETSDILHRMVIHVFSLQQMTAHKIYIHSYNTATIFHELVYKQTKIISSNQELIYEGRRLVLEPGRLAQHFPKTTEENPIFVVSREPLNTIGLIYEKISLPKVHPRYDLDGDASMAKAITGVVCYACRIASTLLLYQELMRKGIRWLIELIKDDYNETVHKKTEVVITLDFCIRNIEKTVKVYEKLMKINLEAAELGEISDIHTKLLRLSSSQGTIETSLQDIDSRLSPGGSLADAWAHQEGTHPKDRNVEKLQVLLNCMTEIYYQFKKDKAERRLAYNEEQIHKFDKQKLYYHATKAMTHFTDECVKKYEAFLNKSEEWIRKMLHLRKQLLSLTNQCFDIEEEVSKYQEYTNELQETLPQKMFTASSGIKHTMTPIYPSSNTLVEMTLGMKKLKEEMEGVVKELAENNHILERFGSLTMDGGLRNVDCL
- PROCEDURE_SUMMARY: Inhibition of recombinant full-length TBK1 (unknown origin) using CK1tide as substrate by microfluidic mobility shift assay
RECORDED_METRIC: IC50 (nM)
Report only the number, with the unit nM understood.

Sample answers from the record:
COc1ccc(-c2nc3cc(-c4csc(C(=O)NCC(C)(C)CO)c4)cnc3[nH]2)cc1 :: 100
CNc1c(-c2ccc(C(=O)O)s2)cnc2[nH]c(-c3ccc(OC)cc3)nc12 :: 1040
COc1ccc(-c2nc3cc(-c4csc(C(=O)NCC(C)C)c4)cnc3[nH]2)cc1 :: 77

Query: IC50; subject: `COc1ccc(-c2nc3cc(-c4csc(C(C)=O)c4)cnc3[nH]2)cc1`
650

Origin of measurements: ChEMBL document CHEMBL3124838
